target: feline FcRn complex (FcRn-α subunit and β-microglobulin), biotin labeled (feline); experiment: SPR, pH 6
Answer each item with its documented pKd.
Answers are plain numbers, as −log10 of the molar value.

BINDER: feline IgG1a S428Y (antibody, part only; not given: Variable domains, not shown: another chain or arm of the molecule) constant: ASTTAPSVFPLAPSCGTTSGATVALACLVLGYFPEPVTVSWNSGALTSGVHTFPAVLQASGLYSLSSMVTVPSSRWLSDTFTCNVAHPPSNTKVDKTVRKTDHPPGPKPCDCPKCPPPEMLGGPSIFIFPPKPKDTLSISRTPEVTCLVVDLGPDDSDVQITWFVDNTQVYTAKTSPREEQFNSTYRVVSVLPILHQDWLKGKEFKCKVNSKSLPSPIERTISKAKGQPHEPQVYVLPPAQEELSRNKVSVTCLIKSFHPPDIAVEWEITGQPEPENNYRTTPPQLDSDGTYFVYSKLSVDRSHWQRGNTYTCSVYHEALHSHHTQKSLTQSPGK
MEASURED NUMBER: 7.79
//
BINDER: feline IgG1a S252H/D312P (antibody, part only; not given: variable domains, not shown: another chain or arm of the molecule; small tags and cut ends) constant: ASTTAPSVFPLAPSCGTTSGATVALACLVLGYFPEPVTVSWNSGALTSGVHTFPAVLQASGLYSLSSMVTVPSSRWLSDTFTCNVAHPPSNTKVDKTVRKTDHPPGPKPCDCPKCPPPEMLGGPSIFIFPPKPKDTLHISRTPEVTCLVVDLGPDDSDVQITWFVDNTQVYTAKTSPREEQFNSTYRVVSVLPILHQPWLKGKEFKCKVNSKSLPSPIERTISKAKGQPHEPQVYVLPPAQEELSRNKVSVTCLIKSFHPPDIAVEWEITGQPEPENNYRTTPPQLDSDGTYFVYSKLSVDRSHWQRGNTYTCSVSHEALHSHHTQKSLTQSPGK
MEASURED NUMBER: 8.41

List pKd for every entry below, keeping the order given.
1. feline IgG1a S252R/S428L/S434F (antibody, part only; not given: Variable domains, not shown: another chain or arm of the molecule) constant: ASTTAPSVFPLAPSCGTTSGATVALACLVLGYFPEPVTVSWNSGALTSGVHTFPAVLQASGLYSLSSMVTVPSSRWLSDTFTCNVAHPPSNTKVDKTVRKTDHPPGPKPCDCPKCPPPEMLGGPSIFIFPPKPKDTLRISRTPEVTCLVVDLGPDDSDVQITWFVDNTQVYTAKTSPREEQFNSTYRVVSVLPILHQDWLKGKEFKCKVNSKSLPSPIERTISKAKGQPHEPQVYVLPPAQEELSRNKVSVTCLIKSFHPPDIAVEWEITGQPEPENNYRTTPPQLDSDGTYFVYSKLSVDRSHWQRGNTYTCSVLHEALHFHHTQKSLTQSPGK
2. feline IgG1a S252Y/S428M/S434F (antibody, part only; not given: Variable domains, not shown: another chain or arm of the molecule) constant: ASTTAPSVFPLAPSCGTTSGATVALACLVLGYFPEPVTVSWNSGALTSGVHTFPAVLQASGLYSLSSMVTVPSSRWLSDTFTCNVAHPPSNTKVDKTVRKTDHPPGPKPCDCPKCPPPEMLGGPSIFIFPPKPKDTLYISRTPEVTCLVVDLGPDDSDVQITWFVDNTQVYTAKTSPREEQFNSTYRVVSVLPILHQDWLKGKEFKCKVNSKSLPSPIERTISKAKGQPHEPQVYVLPPAQEELSRNKVSVTCLIKSFHPPDIAVEWEITGQPEPENNYRTTPPQLDSDGTYFVYSKLSVDRSHWQRGNTYTCSVMHEALHFHHTQKSLTQSPGK
3. feline IgG1a S252Y/Q311W/D312P (antibody, part only; not given: Variable domains, not shown: another chain or arm of the molecule) constant: ASTTAPSVFPLAPSCGTTSGATVALACLVLGYFPEPVTVSWNSGALTSGVHTFPAVLQASGLYSLSSMVTVPSSRWLSDTFTCNVAHPPSNTKVDKTVRKTDHPPGPKPCDCPKCPPPEMLGGPSIFIFPPKPKDTLYISRTPEVTCLVVDLGPDDSDVQITWFVDNTQVYTAKTSPREEQFNSTYRVVSVLPILHWPWLKGKEFKCKVNSKSLPSPIERTISKAKGQPHEPQVYVLPPAQEELSRNKVSVTCLIKSFHPPDIAVEWEITGQPEPENNYRTTPPQLDSDGTYFVYSKLSVDRSHWQRGNTYTCSVSHEALHSHHTQKSLTQSPGK
4. feline IgG1a S252Y/S428M/S434P (antibody, part only; not given: Variable domains, not shown: another chain or arm of the molecule) constant: ASTTAPSVFPLAPSCGTTSGATVALACLVLGYFPEPVTVSWNSGALTSGVHTFPAVLQASGLYSLSSMVTVPSSRWLSDTFTCNVAHPPSNTKVDKTVRKTDHPPGPKPCDCPKCPPPEMLGGPSIFIFPPKPKDTLYISRTPEVTCLVVDLGPDDSDVQITWFVDNTQVYTAKTSPREEQFNSTYRVVSVLPILHQDWLKGKEFKCKVNSKSLPSPIERTISKAKGQPHEPQVYVLPPAQEELSRNKVSVTCLIKSFHPPDIAVEWEITGQPEPENNYRTTPPQLDSDGTYFVYSKLSVDRSHWQRGNTYTCSVMHEALHPHHTQKSLTQSPGK
5. feline IgG1a S252Y/S428M/Q311Y (antibody, part only; not given: Variable domains, not shown: another chain or arm of the molecule) constant: ASTTAPSVFPLAPSCGTTSGATVALACLVLGYFPEPVTVSWNSGALTSGVHTFPAVLQASGLYSLSSMVTVPSSRWLSDTFTCNVAHPPSNTKVDKTVRKTDHPPGPKPCDCPKCPPPEMLGGPSIFIFPPKPKDTLYISRTPEVTCLVVDLGPDDSDVQITWFVDNTQVYTAKTSPREEQFNSTYRVVSVLPILHYDWLKGKEFKCKVNSKSLPSPIERTISKAKGQPHEPQVYVLPPAQEELSRNKVSVTCLIKSFHPPDIAVEWEITGQPEPENNYRTTPPQLDSDGTYFVYSKLSVDRSHWQRGNTYTCSVMHEALHSHHTQKSLTQSPGK

[8.19, 10.68, 7.45, 8.31, 8.62]

Quickly give me recorded pKd for feline IgG1a S428R (antibody, part only; not given: Variable domains, not shown: another chain or arm of the molecule; small tags and cut ends) constant: ASTTAPSVFPLAPSCGTTSGATVALACLVLGYFPEPVTVSWNSGALTSGVHTFPAVLQASGLYSLSSMVTVPSSRWLSDTFTCNVAHPPSNTKVDKTVRKTDHPPGPKPCDCPKCPPPEMLGGPSIFIFPPKPKDTLSISRTPEVTCLVVDLGPDDSDVQITWFVDNTQVYTAKTSPREEQFNSTYRVVSVLPILHQDWLKGKEFKCKVNSKSLPSPIERTISKAKGQPHEPQVYVLPPAQEELSRNKVSVTCLIKSFHPPDIAVEWEITGQPEPENNYRTTPPQLDSDGTYFVYSKLSVDRSHWQRGNTYTCSVRHEALHSHHTQKSLTQSPGK
7.16
